Where these numbers come from: ChEMBL document CHEMBL6114966

Target: RNA demethylase ALKBH5 (Homo sapiens, UniProt Q6P6C2)
Sequence (Q6P6C2 whole entry): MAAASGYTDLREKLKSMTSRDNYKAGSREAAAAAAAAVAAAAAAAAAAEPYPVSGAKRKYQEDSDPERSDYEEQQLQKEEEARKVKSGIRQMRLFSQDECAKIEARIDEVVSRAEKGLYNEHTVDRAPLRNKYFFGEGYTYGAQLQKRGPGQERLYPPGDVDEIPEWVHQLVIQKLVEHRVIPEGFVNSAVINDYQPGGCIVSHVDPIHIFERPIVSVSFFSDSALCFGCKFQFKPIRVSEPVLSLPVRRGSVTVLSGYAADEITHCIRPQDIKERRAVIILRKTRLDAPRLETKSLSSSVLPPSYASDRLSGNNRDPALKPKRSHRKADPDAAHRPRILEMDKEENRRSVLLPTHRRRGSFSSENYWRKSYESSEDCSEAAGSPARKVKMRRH
Test: Inhibition of ALKBH5 (unknown origin) using 5'-ATTGTCA(m6A)CAGCAGA-FAM-3' as substrate measured after 30 mins by fluorescence polarization assay
Hi! Could you tag entries with IC50 below 30 µM as True, and those at or above as False? Much appreciated.

{"columns": ["smiles-code", "measurement-target", "category"],
 "data": [
  ["O=C(O)c1ccccc1NC1=C(Cl)C(=O)N(c2ccc(C(F)(F)F)c(Br)c2)C1=O", "RNA demethylase ALKBH5 (Homo sapiens, UniProt Q6P6C2)", "True"],
  ["CC(=O)c1ccc(N2C(=O)C(Cl)=C(Nc3ccccc3C(=O)O)C2=O)cc1", "RNA demethylase ALKBH5 (Homo sapiens, UniProt Q6P6C2)", "False"],
  ["C#Cc1cccc(N2C(=O)C(Cl)=C(Nc3ccccc3C(=O)O)C2=O)c1", "RNA demethylase ALKBH5 (Homo sapiens, UniProt Q6P6C2)", "False"],
  ["O=C(O)c1ccccc1NC1=C(Cl)C(=O)N(c2ccc(Br)c(Br)c2)C1=O", "RNA demethylase ALKBH5 (Homo sapiens, UniProt Q6P6C2)", "True"],
  ["O=C(O)c1ccccc1NC1=C(Cl)C(=O)N(c2ccc(O)cc2)C1=O", "RNA demethylase ALKBH5 (Homo sapiens, UniProt Q6P6C2)", "False"],
  ["NS(=O)(=O)c1cccc(NC2=C(Cl)C(=O)N(c3ccc(Cl)c(Cl)c3)C2=O)c1", "RNA demethylase ALKBH5 (Homo sapiens, UniProt Q6P6C2)", "False"],
  ["O=C(O)c1ccccc1NC1=C(Cl)C(=O)N(c2ccc(I)c(Br)c2)C1=O", "RNA demethylase ALKBH5 (Homo sapiens, UniProt Q6P6C2)", "True"],
  ["O=C(O)c1ccccc1NC1=C(Cl)C(=O)N(c2ccc(I)c(Cl)c2)C1=O", "RNA demethylase ALKBH5 (Homo sapiens, UniProt Q6P6C2)", "True"],
  ["N#Cc1cc(C(F)(F)F)ccc1N1C(=O)C(Cl)=C(Nc2ccccc2C(=O)O)C1=O", "RNA demethylase ALKBH5 (Homo sapiens, UniProt Q6P6C2)", "False"],
  ["O=C(O)c1ccccc1NC1=C(Cl)C(=O)N(c2ccccc2Cl)C1=O", "RNA demethylase ALKBH5 (Homo sapiens, UniProt Q6P6C2)", "False"],
  ["COC(=O)c1cccc(NC2=C(Cl)C(=O)N(c3ccc(Cl)c(Cl)c3)C2=O)c1", "RNA demethylase ALKBH5 (Homo sapiens, UniProt Q6P6C2)", "False"],
  ["N#Cc1ccc(N2C(=O)C(Cl)=C(Nc3ccccc3C(=O)O)C2=O)cc1Br", "RNA demethylase ALKBH5 (Homo sapiens, UniProt Q6P6C2)", "True"],
  ["Cc1ccc(Br)cc1N1C(=O)C(Cl)=C(Nc2ccccc2C(=O)O)C1=O", "RNA demethylase ALKBH5 (Homo sapiens, UniProt Q6P6C2)", "False"],
  ["Cc1ccc(C(=O)O)c(NC2=C(Cl)C(=O)N(c3ccc(Br)c(Br)c3)C2=O)c1", "RNA demethylase ALKBH5 (Homo sapiens, UniProt Q6P6C2)", "False"],
  ["O=C1C(Cl)=C(Nc2ccccc2)C(=O)N1c1ccc(Cl)c(Cl)c1", "RNA demethylase ALKBH5 (Homo sapiens, UniProt Q6P6C2)", "False"],
  ["Cc1ccc(N2C(=O)C(Cl)=C(Nc3ccccc3C(=O)O)C2=O)cc1Br", "RNA demethylase ALKBH5 (Homo sapiens, UniProt Q6P6C2)", "False"],
  ["Cc1cc(N2C(=O)C(Cl)=C(Nc3ccccc3C(=O)O)C2=O)ccc1C(F)(F)F", "RNA demethylase ALKBH5 (Homo sapiens, UniProt Q6P6C2)", "False"],
  ["O=C(O)c1ccccc1NC1=C(Cl)C(=O)N(c2cccc(O)c2)C1=O", "RNA demethylase ALKBH5 (Homo sapiens, UniProt Q6P6C2)", "False"],
  ["O=C(O)c1ccccc1NC1=C(Cl)C(=O)N(c2ccc([N+](=O)[O-])c(Br)c2)C1=O", "RNA demethylase ALKBH5 (Homo sapiens, UniProt Q6P6C2)", "True"]
]}
